Data provenance is patent EP2928504B1.

system: BT474; assay: Cell viability assay (Cell Titer-Glo); type: cell-based; details: Homo sapiens, BT-474, 72 h, Table VIII, drug compounds, read-out: BT474 IC50
Flag rule - IC50 less than 1 nM flags Yes; the remaining entries get No.

[
  {
    "compound": "CCC(C)C(C(CC(=O)N1CCCC1C(OC)C(C)C(=O)NC(Cc1ccccc1)C(=O)OC)OC)N(C)C(=O)C(NC(=O)C(C(C)C)N(C)C)C(C)C (stereo not drawn) [drawing 761 (R42 = -CH3)]",
    "testedSystem": "BT474",
    "className": "Yes"
  },
  {
    "compound": "COc1cc2cc(C(=O)N3C[C@@H](CCl)c4c3cc(OC(=O)[C@@H](N)C(C)C)c3ccccc43)[nH]c2c(OC)c1OC",
    "testedSystem": "BT474",
    "className": "No"
  },
  {
    "compound": "CCC(C)C(C(CC(=O)N1CCCC1C(OC)C(C)C(=O)NC(Cc1ccccc1)C(=O)NCCCOC(=O)C1CCCN1)OC)N(C)C(=O)C(NC(=O)C(C(C)C)N(C)C)C(C)C (stereo not drawn)",
    "testedSystem": "BT474",
    "className": "No"
  },
  {
    "compound": "COc1cc2cc(C(=O)N3C[C@@H](CCl)c4c3cc(OC(=O)CCN)c3ccccc43)[nH]c2c(OC)c1OC",
    "testedSystem": "BT474",
    "className": "No"
  },
  {
    "compound": "COc1cc2cc(C(=O)N3C[C@@H](CCl)c4c3cc(O)c3ccccc43)[nH]c2c(OC)c1OC [drawing 780 (R91 = H)]",
    "testedSystem": "BT474",
    "className": "No"
  }
]

Answer whether the compound CCCO[C@H](C[C@H](C(C)C)N(CCC)C(=O)[C@@H](NC(=O)[C@H]1CCCCN1C)[C@@H](C)CC)c1nc(C(=O)N[C@@H](Cc2ccc(OC(=O)NCCCCN)cc2)C[C@H](C)C(=O)O)cs1 has IC50 strictly less than 1 nM
Yes

I'd appreciate it if you could check whether CCCO[C@H](C[C@H](C(C)C)N(CCC)C(=O)[C@@H](NC(=O)[C@H]1CCCCN1C)[C@@H](C)CC)c1nc(C(=O)N[C@@H](Cc2ccc(O)cc2)C[C@H](C)C(N)=O)cs1 [drawing 786 (R43 = H, R78 = -NH2)] has IC50 smaller than 1 nM.
No

Confirm or reject: IC50 of COc1cc2cc(C(=O)N3C[C@@H](CCl)c4c3cc(OC(=O)N(C)CCO)c3ccccc43)[nH]c2c(OC)c1OC lies strictly below 1 nM
No

Regarding COc1cc2cc(C(=O)N3C[C@@H](CCl)c4c3cc(OC(=O)[C@@H]3CCCN3)c3ccccc43)[nH]c2c(OC)c1OC , kindly confirm whether its IC50 is beneath 1 nM.
No
